Source: patent US9289478B2

- PROTOCOL_DETAILS: HPLC-assay for stability of peptides in lyophilised formulation on storage for 3 months (Example 4)
- Type: physicochemical
- CONDITION_CONTEXT: -20° C. +/- 5° C.; 3 months
Property: stability of peptides in formulation, 3 M; scope: individual sequences

>>> print(df.to_string())
                              sequence_text     recorded_result
0  TMLARLASA (listed as Homo sapiens) [CSP-001, Chondroitin sulfate proteoglycan 4 peptide]  99.61 % of Initial
1  GLWHHQTEV (listed as Homo sapiens) [NRCAM-001, Neuronal cell adhesion molecule peptide]  98.91 % of Initial
2  KVFAGIPTV (listed as Homo sapiens) [PTP-005, Protein tyrosine phosphatase, receptor-type, Z polypeptide 1 peptide]  98.34 % of Initial

stability of peptides in formulation, 3 M recorded for this sequence, TFSYVDPVITSISPKYG (listed as Homo sapiens) [MET-005, Met proto-oncogene peptide] , is 99.00 % of Initial

// stability of peptides in formulation, 3 M value for ALWAWPSEL (listed as Homo sapiens) [BCA-002, Brevican tumour-associated peptide] : 98.61 % of Initial

// field: stability of peptides in formulation, 3 M; key: TLGEFLKLDRERAKN (listed as Homo sapiens) [BIR-002, Baculoviral IAP repeat-containing 5 (survivin) peptide] ; value = 100.14 % of Initial

###

Listing: stability of peptides in formulation, 2 M of selected sequences
- PROTOCOL_DETAILS: HPLC-assay for stability of peptides in lyophilised formulation on storage for 3 months (Example 4)
- Type: physicochemical
- CONDITION_CONTEXT: -20° C. +/- 5° C.; 2 months

Reference set (3 entries):
>>> print(df.to_string())
                              sequence_text     recorded_result
0  AMTQLLAGV (listed as Homo sapiens) [TNC-001, Tenascin C peptide]  97.61 % of Initial
1  TFSYVDPVITSISPKYG (listed as Homo sapiens) [MET-005, Met proto-oncogene peptide]  97.54 % of Initial
2  TLGEFLKLDRERAKN (listed as Homo sapiens) [BIR-002, Baculoviral IAP repeat-containing 5 (survivin) peptide]  96.98 % of Initial

Value of stability of peptides in formulation, 2 M reported for the sequence ALWAWPSEL (listed as Homo sapiens) [BCA-002, Brevican tumour-associated peptide] is 97.61 % of Initial

###

Item-by-item account of stability of peptides in formulation, 1 M
- PROTOCOL_DETAILS: HPLC-assay for stability of peptides in lyophilised formulation on storage for 3 months (Example 4)
- Assay type: physicochemical
- CONDITION_CONTEXT: +5° C. +/- 3° C.; 1 month
- Description: Identity, purity and peptide content are determined by analytical RP-HPLC chromatography. Detection wavelength was 220 nm.

// solved cases for stability of peptides in formulation, 1 M follow
In [3]: df
Out[3]:
                              sequence_text     recorded_result
0  TFSYVDPVITSISPKYG (listed as Homo sapiens) [MET-005, Met proto-oncogene peptide]  99.06 % of Initial
1  NLDTLMTYV (listed as Homo sapiens) [NLGN4X-001, Neuroligin 4, X-linked peptide]  99.12 % of Initial
2  TLGEFLKLDRERAKN (listed as Homo sapiens) [BIR-002, Baculoviral IAP repeat-containing 5 (survivin) peptide]  98.53 % of Initial
3  KVFAGIPTV (listed as Homo sapiens) [PTP-005, Protein tyrosine phosphatase, receptor-type, Z polypeptide 1 peptide]  98.93 % of Initial
4  TMLARLASA (listed as Homo sapiens) [CSP-001, Chondroitin sulfate proteoglycan 4 peptide]  98.99 % of Initial

// sample AMTQLLAGV (listed as Homo sapiens) [TNC-001, Tenascin C peptide] , its stability of peptides in formulation, 1 M was 99.02 % of Initial
